tested.target: transketolase (TK) in colon carcinoma HCT116 cells (Homo sapiens, UniProt P29401)
Construct: endogenous in cells
Sequence (P29401 whole entry): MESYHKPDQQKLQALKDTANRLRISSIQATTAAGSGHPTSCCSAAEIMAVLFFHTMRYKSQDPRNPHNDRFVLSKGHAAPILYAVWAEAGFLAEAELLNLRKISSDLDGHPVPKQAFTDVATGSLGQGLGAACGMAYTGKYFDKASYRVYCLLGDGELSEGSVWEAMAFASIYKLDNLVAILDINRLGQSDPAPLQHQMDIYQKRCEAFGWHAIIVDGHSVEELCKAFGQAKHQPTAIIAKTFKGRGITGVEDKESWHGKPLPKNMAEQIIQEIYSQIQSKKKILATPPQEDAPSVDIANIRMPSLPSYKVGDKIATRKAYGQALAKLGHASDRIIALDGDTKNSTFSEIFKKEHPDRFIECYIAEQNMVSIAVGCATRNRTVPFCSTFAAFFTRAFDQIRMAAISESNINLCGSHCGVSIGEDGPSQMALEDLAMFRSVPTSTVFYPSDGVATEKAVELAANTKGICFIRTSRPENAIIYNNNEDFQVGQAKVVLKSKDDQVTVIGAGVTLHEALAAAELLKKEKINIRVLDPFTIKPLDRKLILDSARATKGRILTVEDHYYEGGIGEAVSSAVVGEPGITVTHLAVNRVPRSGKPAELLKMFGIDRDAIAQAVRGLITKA
protocol.notes: Cellular transketolase inhibition assay in HCT116
condition.context: colon carcinoma HCT116, thiamine-free DMEM, 48 h after compound treatment, TK activity in lysate
pIC50: −log10 of the molar value.
Classification field: TRUE = pIC50 at or over 6; FALSE = pIC50 under 6.

Form field: pIC50 at least 6? Entry: Cc1c(CCO)sc[n+]1Cc1cccnc1C#N FALSE

Is it the case that Cc1ccc(C[n+]2csc(CCO)c2C)c(N)n1 has pIC50 reaching or exceeding 6? TRUE

Threshold query (pIC50 >= 6) on Cc1c(CCO)sc[n+]1Cc1ccc(C(F)(F)F)nc1 TRUE

Is pIC50 at least 6? Consider CCc1ccc(C[n+]2csc(CCO)c2C)c(N)n1 TRUE

Answer whether pIC50 of Cc1ncc(C[n+]2c(C)sc(CCO)c2C)c(N)n1 is greater than or equal to 6. TRUE

Would you say Cc1c(CCO)sc[n+]1Cc1ccc(C#N)nc1N shows pIC50 at minimum 6? TRUE

Dear colleague, could you confirm whether Cc1ccc(C[n+]2csc(CCC#N)c2C)c(N)n1 has pIC50 at or above 6? FALSE

Assess whether reported pIC50 for Cc1ccc(C[n+]2c(C)sc(CCO)c2C)c(N)n1 [drawing 55] sits at 6 or higher. TRUE

Confirm if pIC50 reported for the compound Cc1ccc(C[n+]2csc([C@@H](O)CO)c2C)c(N)n1 is 6 or above. FALSE

Determine whether measured pIC50 meets or exceeds 6 for Cc1c(CCO)sc[n+]1Cc1ccc(C(F)(F)F)nc1N TRUE

Quick check: does Cc1c(CCO)sc[n+]1Cc1cncnc1 have pIC50 greater than or equal to 6? FALSE

Hi, just wondering whether Cc1cnc(C[n+]2csc(CCO)c2C)c(N)n1 shows pIC50 of 6 or higher. TRUE

Please check the record Cc1c(CCO)sc[n+]1Cc1cnccc1N and state if its pIC50 is at or above 6. FALSE

// inclusive: pIC50 at least 6? input: Cc1ccc(C[n+]2c(-c3ccc4c(c3)OCO4)sc(CCO)c2C)c(N)n1 FALSE

Check the entry Cc1c(CCO)sc[n+]1Cc1ccc(N)nc1 : does pIC50 equal or exceed 6? FALSE

Say whether Cc1c(CCO)sc[n+]1Cc1cccc(N2C(=O)c3ccccc3C2=O)n1 shows pIC50 of 6 or more. FALSE

Please check the record Cc1c(CCO)sc[n+]1Cc1ccccc1[N+](=O)[O-] and state if its pIC50 is at or above 6. FALSE

Decide: pIC50 of Cc1cc(C)c(C[n+]2csc(C(O)CO)c2C)c(N)n1 (centres unmarked) >= 6? FALSE
